tested_on: S. pyogenes SKKanGAS, kanamycin survival, BacTiterGlo, 6 h
test_name: S. pyogenes SKKanGAS kanamycin growth inhibitors – SKKanGAS strain, luminescence, dose confirmation, streptokinase promoter inhibitor project, dose response (AID 1902);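 further: lower survival reflects blocked streptokinase promoter driving kanamycin resistance gene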
pEC50: −log10 of the molar value.
assay_metric: pEC50

Reference set (10 entries):
# molecule, pEC50
rows = [
    ("Cc1cnn(-c2nc(-c3ccccc3)cc(-c3ccccc3)n2)c1", 5.35),
    ("CC1(c2ccccc2)CC(C)(C)N2C(=O)/C(=C3\\SC(=S)NC3=O)c3cccc1c32 (centres undefined)", 6.37),
    ("Cc1cccc(C)c1NC(=S)N/N=C/c1ccc(OCCC(C)C)cc1", 5.60),
    ("CC[C@H]1OC(=O)[C@H](C)[C@@H](O[C@H]2C[C@@](C)(OC)[C@@H](O)[C@H](C)O2)[C@H](C)[C@@H](O[C@@H]2O[C@H](C)C[C@H](N(C)C)[C@H]2O)[C@](C)(O)C[C@@H](C)C(=NOCOCCOC)[C@H](C)[C@@H](O)[C@]1(C)O", "> 7.22"),
    ("Cn1c(N)c(C(=O)COC(=O)/C=C/c2ccc(OC(F)F)cc2)c(=O)n(C)c1=O", 5.83),
    ("C=CCn1c(O)c(N=NC(=S)Nc2ccccc2F)c2ccccc21", 6.24),
    ("Cc1ccc(Cc2cnc(N3C(=N)SC(C)C3=O)s2)cc1 (centres undefined)", 6.53),
    ("O=c1cc(C(F)(F)F)[nH]c2c(C(F)(F)F)cccc12", 5.63),
    ("Cc1cc(NC(=O)c2ccc(C)s2)n(-c2nc3ccccc3[nH]2)n1", 5.46),
    ("CC(C)(C)c1cc[n+](C2=C([O-])c3ccccc3C(=O)/C2=N\\S(=O)(=O)c2cccs2)cc1", 5.70),
]

I would be grateful if you could provide pEC50 for each of the following entries.
1. CN1/C(=C\C(=O)Nc2ccc(Cl)cc2)C(C)(C)c2ccccc21
2. O=C(N/N=C/c1ccc([N+](=O)[O-])o1)c1cc(-c2cccc(Br)c2)nc2ccccc12
3. O=C(CNc1ccc2ccccc2c1)N/N=C/c1ccc([N+](=O)[O-])o1

[5.06, 6.37, 4.85]

I would be grateful if you could provide pEC50 for each of the following entries.
1. Cc1noc(C)c1CSc1nc2sc(C)c(C)c2c(=O)n1C1CCCC1
2. O=C(O)c1ccc2c3c(ncnc13)-c1ccccc1C2=O
3. Cc1nnc(SCC2=C(C(=O)O)N3C(=O)C(NC(=O)Cn4nc(C)c(Cl)c4C)C3SC2)s1 (centres undefined)
4. O=C(Nc1cccc(S(=O)(=O)Nc2ccc(Cl)cc2)c1)c1cc2c(s1)CCCC2
5. CNC[C@H](CC1CCCCC1)NC[C@H](Cc1ccccc1)NCCC12CC3CC(CC(C3)C1)C2
6. CC(C)(C)c1cc(NCCCn2ccnc2)n2ncc(-c3ccc(Cl)cc3)c2n1

1. 5.53
2. 5.28
3. > 7.22
4. 5.89
5. 5.53
6. 5.62

----------
tested_on: S. pyogenes SKKanGAS, kanamycin survival, BacTiterGlo, 6 h
test_name: S. pyogenes SKKanGAS kanamycin growth inhibitors – SKKanGAS strain, luminescence, dose confirmation, streptokinase promoter inhibitor project, dose response (AID 1902);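 further: lower survival reflects blocked streptokinase promoter driving kanamycin resistance gene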
The source made the active and inactive calls.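 The calls were made as follows: active = EC50 no more than a set limit of log units above the highest dose; inactive = the rest.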
Outcome (select one): 1 (yes) = active, 0 (no) = inactive

Here are 5 compounds together with their reported answers.
# compound, tested_on, group_label
data = [
    ("COc1ccc(O)c(CN2CCC(n3nccc3NC(=O)CCOc3ccccc3)CC2)c1", "S. pyogenes SKKanGAS, kanamycin survival, BacTiterGlo, 6 h", "0 (no)"),
    ("CCN1CCN(C(CNS(=O)(=O)c2ccc(C)cc2)c2cccnc2)CC1 (stereo unspecified)", "S. pyogenes SKKanGAS, kanamycin survival, BacTiterGlo, 6 h", "0 (no)"),
    ("Cc1ccccc1N1CCN(C(=O)CCN2C(=O)c3ccccc3C2=O)CC1", "S. pyogenes SKKanGAS, kanamycin survival, BacTiterGlo, 6 h", "0 (no)"),
    ("CC1(C)Oc2ccc3ccc(=O)oc3c2/C(=C/NNC(N)=S)C1=O", "S. pyogenes SKKanGAS, kanamycin survival, BacTiterGlo, 6 h", "1 (yes)"),
    ("Oc1c(CN2CCc3ccccc3C2)cc(Cl)c2cccnc12", "S. pyogenes SKKanGAS, kanamycin survival, BacTiterGlo, 6 h", "1 (yes)"),
]

Then this compound:
# outcome recorded in this test, key = FC(F)(F)c1cccc(-c2nc3nc(Cl)c(Cl)nc3[nH]2)c1 1 (yes)
